Target: RecQ E. coli (Escherichia coli, UniProt P15043 1-609)
Sequence (P15043 whole entry): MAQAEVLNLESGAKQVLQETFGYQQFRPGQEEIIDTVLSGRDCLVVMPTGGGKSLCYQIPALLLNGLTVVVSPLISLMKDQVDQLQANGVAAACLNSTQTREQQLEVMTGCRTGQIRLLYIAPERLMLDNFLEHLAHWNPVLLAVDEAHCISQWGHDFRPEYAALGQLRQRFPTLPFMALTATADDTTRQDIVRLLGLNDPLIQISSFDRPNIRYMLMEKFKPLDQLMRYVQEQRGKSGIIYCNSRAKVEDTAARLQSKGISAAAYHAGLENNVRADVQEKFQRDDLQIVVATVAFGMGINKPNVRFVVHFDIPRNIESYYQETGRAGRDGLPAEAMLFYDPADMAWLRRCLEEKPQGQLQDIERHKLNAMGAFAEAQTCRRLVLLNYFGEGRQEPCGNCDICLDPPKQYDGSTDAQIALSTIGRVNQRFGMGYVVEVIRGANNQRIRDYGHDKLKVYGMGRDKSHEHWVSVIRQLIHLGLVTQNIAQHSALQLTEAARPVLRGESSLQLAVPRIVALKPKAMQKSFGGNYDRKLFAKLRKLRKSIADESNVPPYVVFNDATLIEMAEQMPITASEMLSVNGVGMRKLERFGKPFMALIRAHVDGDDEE
Experiment: fluorescence anisotropy; IC50 of CdCl2 inhibiting binding (not protein affinity); 200 nM protein, 5 nM DNA; 50 mM Tris-HCl pH 8.0, 50 mM NaCl, 1 mM DTT, 25 C; 200 nM protein, 5 nM 3'-fluorescein DNA
Conditions: protein: recombinant; label: 3'-fluorescein
TEST_READOUT: IC50 (µM)
Answers are plain numbers, in µM.

{"BINDER": "GCCCTGCTGCCGACCAACGAAGGT (ssDNA) [F-24 ss]", "TEST_READOUT": "IC50", "READING": 40.2}

Please look at the following binder next.
query: Identify measured IC50 corresponding to GCCCTGCTGCCGACCAACGATGGTTACATTCCCGCTGCTG (ssDNA) [F-40]
result: 39.2

All figures here come from paper PMC4872126.
